- Assay text: activity coefficient (dimensionless); of the first substance listed, at infinite dilution; xn = mol fraction of the nth substance listed
- Test parameters: 318.15 K; Liquid; Chromatography; x1 = 0
Could you please report measured activity coefficient for the items listed next?
Lab note: record the figure alone, no unit after it.

So for C#CCCCC [1-hexyne] + CCCCn1cc[n+](C)c1.N#C[S-] , the logged activity coefficient turned out to be 6.59

So for CCCCCCCCC [nonane] + CCCCn1cc[n+](C)c1.N#C[S-] , the logged activity coefficient turned out to be 376

So for C1CCCC1 [cyclopentane] + CCCCn1cc[n+](C)c1.N#C[S-] , the logged activity coefficient turned out to be 34.9

So for CCCCCO [pentan-1-ol] + CCCCn1cc[n+](C)c1.N#C[S-] , the logged activity coefficient turned out to be 1.62

So for C#CCCCCC [1-heptyne] + CCCCn1cc[n+](C)c1.N#C[S-] , the logged activity coefficient turned out to be 10.1
